Give measured Kd for each item. Keep answers brief.
# EXPERIMENTAL_SYSTEM: T1, Prostate specific antigen (PSA), purified from human seminal fluid (human, UniProt P07288 25-261)
# T1 construct: mature; Mostly captured on wells by MAb 5E4 (IFMA) or on the chip by MAb H117 (SPR); in solution in enzyme assays; also called free PSA; active PSA
# PROCEDURE_DETAILS: SPR, PSA captured by MAb H117, 10 µM Zn2+, single fit, 3.4 µM peptide
Give your result in nM as a bare value.

Req: State the recorded Kd for this entry: CVFAHNYDYLVC (other) [GST-B-2 (peptide B-2 expressed as glutathione S-transferase fusion protein)]
Resp: 600

Req: Now consider CVFTSDYAFC (other) [GST-A-1 (peptide A-1 expressed as glutathione S-transferase fusion protein)] and answer again.
Resp: 1400
